test system: HepG2 cells; test: HepG2 cytotoxicity assay; details: HepG2 cytotoxicity listed with the Pb ODA data set (this manuscript)
Given measured Pb ODA (this manuscript) HepG2 cytoxicity, output true if it is greater than or equal to 10 µM and false if not.

Use these answered entries as a reference point.
compound: Cc1[nH]c(C)c(-c2ccc(Oc3ccc(OC(F)(F)F)cc3)cc2)c(=O)c1Br
target-under-test: HepG2 cells
class-name: true
//
compound: CCC(C)CN1CCN(c2ccc(NC(=O)c3cccs3)cc2)C(C)C1.O=C(O)C(F)(F)F (stereo not drawn)
target-under-test: HepG2 cells
class-name: true
//
compound: Cl.O=C(NC1CCN(CC2(c3ccc(Cl)cc3)CCCCC2)CC1)c1cc[nH]n1
target-under-test: HepG2 cells
class-name: true
//
compound: CN(C)c1ccc(C=Cc2nc(=O)c3ccccc3o2)cc1
target-under-test: HepG2 cells
class-name: true

Input: Assess whether reported Pb ODA (this manuscript) HepG2 cytoxicity for COc1ccc(Nc2ncc(OC)c(Nc3ccccc3C(N)=O)n2)cc1N1CCN(C)CC1.O=CO sits at 10 µM or higher.
Output: true

Input: Is the recorded value of Pb ODA (this manuscript) HepG2 cytoxicity equal to or greater than 10 µM for this compound? Cc1cccc2nc(-c3ccc(-c4ccc(CN5CCOCC5)cc4)cc3)[nH]c12.O=C(O)C(F)(F)F
Output: true

Input: # check: Pb ODA (this manuscript) HepG2 cytoxicity of CCN(C)C(=O)n1ncc2c3c(N)nc(N)nc3ccc21 is greater than or equal to 10 µM
Output: false

Input: Textbook exercise: given the entry COc1ccc2c(=O)c3ccc(OC)cc3[nH]c2c1 , state whether its Pb ODA (this manuscript) HepG2 cytoxicity is greater than or equal to 10 µM.
Output: true

Input: Does Pb ODA (this manuscript) HepG2 cytoxicity meet or surpass 10 µM for CCCCCCCc1c(C)nc2cc(OC)ccc2c1O [TCMDC-137173, endochin] ?
Output: true
